test system: Setaria faberi (SETFA); experiment: Post-emergence glasshouse spray test, visual percentage phytotoxicity after 13 days; type: in vivo; conditions: B1; 1.25 g/ha post-emergence
Listed here: items and their measured SETFA percentage phytotoxicity.
Field format: number, assumed %, no unit text.

>>> value_measured("CS(=O)(=O)c1ccc(C(=O)C2C(=O)CCCC2=O)c(Cl)c1OCCC1OCCO1 [B-II]")
0
>>> value_measured("CCOC(=O)COc1ncccc1Oc1cc(-n2c(=O)cc(C(F)(F)F)n(C)c2=O)c(F)cc1Cl [B-V]")
85

### Prompt Given the entry COc1c(Cl)ccc(-c2nc(C(=O)OCc3ccccc3)c(Cl)c(N)c2F)c1F [B-I] , report its measured SETFA percentage phytotoxicity.
### Response 0

### Prompt Given the entry Nc1c(F)c(-c2ccc3cc[nH]c3c2F)nc(C(=O)O)c1Cl [B-VI] , report its measured SETFA percentage phytotoxicity.
### Response 0

### Prompt Given the entry FC(F)c1cc(-c2c(Cl)cccc2Oc2ncc(Cl)cn2)on1 [A-I] , report its measured SETFA percentage phytotoxicity.
### Response 13
